assayed target: hAM1R (human, UniProt Q16602)
protocol summary: cell-based or functional assay
Numbered stars: 1 amine (or outer) side, 2 acyl side, 3 side chain; on linkers, the order of the positions; unused ones are H or OH. Bridge positions count the residues as written; N and C are the ends. Square brackets hold non-standard residues; d marks the D form. Ends that are not written are not given here. * marks the point of attachment. C20 diacid = O=C(O)CCCCCCCCCCCCCCCCCCC(=O)*; γGlu = O=C(O)[C@H](CCC(=O)[*:2])N[*:1]; Hyp = O=C(O)[C@@H]1C[C@@H](O)CN1; Cit = NC(=O)NCCC[C@H](N)C(=O)O
Please enter true where hAM1R EC50 (cAMP) is greater than or equal to 40 nM, and false where it is lower.

Examples from the recorded data:
{"binder": "GCRFGTCTVQ[Cit]LAHQIYQFTDKDKDNVAPRSKVSPQG[Hyp]-NH2 (disulfide 2-7 (inferred); ends not checked) [SEQ ID NO: 305]", "assigned class": "true"}
{"binder": "{C20 diacid-γGlu}-GCRFGTCTVQRLAHFLYQFTDKDKDNVAPRTNIGPQGY-NH2 (disulfide 2-7 (inferred); ends not checked) [SEQ ID NO: 388]", "assigned class": "false"}
{"binder": "GCRTGTCTVQWLAHQIYQFTDKDKDNVAPRTKIGPQG[Hyp]-NH2 (disulfide 2-7 (inferred); ends not checked) [SEQ ID NO: 357]", "assigned class": "true"}
{"binder": "GCRFGTCTVQWLAHQIYQFTDKDKDNVAPRTKIGPNG[Hyp]-NH2 (disulfide 2-7 (inferred); ends not checked) [SEQ ID NO: 343]", "assigned class": "true"}

Determine whether measured hAM1R EC50 (cAMP) meets or exceeds 40 nM for {C20 diacid-γGlu}-KCNTATCTVARLAHQINQFTDKDKDPVAPPTNVGSNG[Hyp]-NH2 (disulfide 2-7 (inferred); ends not checked) [SEQ ID NO: 137]
true

Decide: hAM1R EC50 (cAMP) of RCNASTCTVN[Cit]LADQITQFSNKDKAQVSPPTEVGPNS[Hyp]-NH2 (disulfide 2-7 (inferred); ends not checked) [SEQ ID NO: 245] >= 40 nM?
true

API: above_or_equal(metric=hAM1R EC50 (cAMP), cutoff=40 nM) for item {C20 diacid-γGlu}-GCRFGTCTVQRLAHFLYQFTDKDKDNVAPRTNVGPQGY-NH2 (disulfide 2-7 (inferred); ends not checked) [SEQ ID NO: 200]
false

Decide: hAM1R EC50 (cAMP) of GCRTGTCTVQRLAHQIYQFTDKDKDNVAPRSNIGPNG[Hyp]-NH2 (disulfide 2-7 (inferred); ends not checked) [SEQ ID NO: 151] >= 40 nM?
true

Would you say {C20 diacid-γGlu}-KCNTATCTVQRLAHQIAQFTDKDKDNVAPPTNVGSNS[Hyp]-NH2 (disulfide 2-7 (inferred); not fully specified; ends not checked) [SEQ ID NO: 69] shows hAM1R EC50 (cAMP) at minimum 40 nM?
true
